# measuredOn: T1, human αvβ1 integrin on cells (human, UniProt P06756 31-1048; P05556 21-798)
# T1 construct: also called stably transfected human αvβ1 cells; αvβ1 on MRC9 human lung fibroblasts
# methodNotes: flow cytometry on stably transfected cells, antibody titration (bivalent EC50)
Entries and their measured pEC50 follow.
On this scale, pEC50 is minus log10 of a concentration expressed in M (mol/L).

Consider the worked cases shown below.
binder="Exemplary Antibody 4 (antibody, V domains shown, expressed in yeast (Adimab platform) and purified on protein A; also called Ex. Ab 4) VH: QVQLVESGGGLVQPGGSLRLSCAASGFTFTSYYMHWVRQAPGQGLEWMGIINPSGGSTSYAQKFQGRVTMTRDTSTSTVYMELSSLRSEDTAVYYCARQQRHRRDYDYYYGMDVWGQGTTVTVSS VL: EIVLTQSPGTLSLSPGERATLSCRASQSVSSDYLAWYQQKPGQAPRLLIYGASRRATGIPDRFSGSGSGTDFTLTISRLEPEDFAVYYCQQAYSLPPTFGGGTKVEIK" measvalue=8.31
binder="Exemplary Antibody 20 (antibody, V domains shown, expressed in yeast (Adimab platform) and purified on protein A; also called Ex. Ab 20) VH: QVQLVESGGGLVKPGGSLRLSCAASGFTFSDYYMSWIRQAPGKGLEWVSYISSSGSTIYYADSVKGRFTISRDNAKNSLYLQMNSLRAEDTAVYYCARGGPSRGDALAEYFQHWGQGTTVTVSS VL: EIVLTQSPATLSLSPGERATLSCRASQSVSRYLAWYQQKPGQAPRLLIYDASNRATGIPARFSGSGSGTDFTLTISSLEPEDFAVYYCQQLSLHPPYTFGGGTKVEIK" measvalue=9.40

Next, consider the following binder.
// recorded pEC50 for Exemplary Antibody 6 (antibody, V domains shown, expressed in yeast (Adimab platform) and purified on protein A; also called Ex. Ab 6) VH: QVQLVESGGGLVKPGGSLRLSCAASGFTFSDYYMSWIRQAPGKGLEWVSYISSSGSTIYYADSVKGRFTISRDNAKNSLYLQMNSLRAEDTAVYYCARGGRNRGDSSLSGIDVWGQGTTVTVSS VL: DIQMTQSPSSLSASVGDRVTITCRASQSINSYLNWYQQKPGKAPKLLIYAASSLQSGVPSRFSGSGSGTDFTLTISSLQPEDFATYYCQQQYSDITFGGGTKVEIK : 9.10
